The reported numbers originate from patent US20220315967A1.

Kindly state ee (%) for each of the entries shown.
Biological target: IvoA (Emericella nidulans)
Construct: The full-length wild-type IvoA and mutants were expressed in S. cerevisiae JHY686 strain; octahistidine (His8) (N); made in house; host or cells: Saccharomyces cerevisiae JHY686
Assay: Biocatalytic stereoinversion or deracemization of tryptophan and substituted tryptophans by IvoA (chiral-HPLC)
Type: biochemical, Aspergillus nidulans
Settings: ee of D-enantiomer; 1.5 mM substrates, 5 μM IvoA, 5 mM ATP, 10 mM MgCl2, 100 mM K2HPO4 buffer, pH 7.5
Procedure: […] The solvent was removed in vaccuo by speedvac and the residue was dissolved in ethanol and analyzed by chiral-HPLC by using a Crownpak® CR(+) column (150 mm×4 mm×3.5 μm, Daicel) at room temperature. The mobile phase was aq. HClO4 1% (w/v) supplemented with 15% (v/v) MeOH and the flow rate was 1.0 ml/min.

Answered examples (4):
NC(Cc1c[nH]c2cccc(F)c12)C(=O)O (centres unmarked) | >99%
NC(Cc1c[nH]c2cc(Br)ccc12)C(=O)O (centres unmarked) | 75%
NC(Cc1c[nH]c2ccc(F)cc12)C(=O)O (centres unmarked) | >99%
NC(Cc1c[nH]c2ccc(Cl)cc12)C(=O)O (centres unmarked) | >99%

Batch request: ee (%) for each of the following compounds.
1. NC(Cc1c[nH]c2cc(Cl)ccc12)C(=O)O (centres unmarked)
2. Cc1cccc2[nH]cc(CC(N)C(=O)O)c12 (centres unmarked)
3. NC(Cc1c[nH]c2ccc([N+](=O)[O-])cc12)C(=O)O (centres unmarked)
4. Cc1cccc2c(CC(N)C(=O)O)c[nH]c12 (centres unmarked)
5. N#Cc1ccc2[nH]cc(CC(N)C(=O)O)c2c1 (centres unmarked)

1. 98%
2. >99%
3. 44%
4. >99%
5. 63%

---

Target: IvoA (Emericella nidulans, UniProt C8V7P4)
Construct: The full-length wild-type IvoA and mutants were expressed in S. cerevisiae JHY686 strain; octahistidine (His8) (N); made in house; host or cells: Saccharomyces cerevisiae JHY686
Sequence (C8V7P4 other isoform, or with tags, fused parts or gaps): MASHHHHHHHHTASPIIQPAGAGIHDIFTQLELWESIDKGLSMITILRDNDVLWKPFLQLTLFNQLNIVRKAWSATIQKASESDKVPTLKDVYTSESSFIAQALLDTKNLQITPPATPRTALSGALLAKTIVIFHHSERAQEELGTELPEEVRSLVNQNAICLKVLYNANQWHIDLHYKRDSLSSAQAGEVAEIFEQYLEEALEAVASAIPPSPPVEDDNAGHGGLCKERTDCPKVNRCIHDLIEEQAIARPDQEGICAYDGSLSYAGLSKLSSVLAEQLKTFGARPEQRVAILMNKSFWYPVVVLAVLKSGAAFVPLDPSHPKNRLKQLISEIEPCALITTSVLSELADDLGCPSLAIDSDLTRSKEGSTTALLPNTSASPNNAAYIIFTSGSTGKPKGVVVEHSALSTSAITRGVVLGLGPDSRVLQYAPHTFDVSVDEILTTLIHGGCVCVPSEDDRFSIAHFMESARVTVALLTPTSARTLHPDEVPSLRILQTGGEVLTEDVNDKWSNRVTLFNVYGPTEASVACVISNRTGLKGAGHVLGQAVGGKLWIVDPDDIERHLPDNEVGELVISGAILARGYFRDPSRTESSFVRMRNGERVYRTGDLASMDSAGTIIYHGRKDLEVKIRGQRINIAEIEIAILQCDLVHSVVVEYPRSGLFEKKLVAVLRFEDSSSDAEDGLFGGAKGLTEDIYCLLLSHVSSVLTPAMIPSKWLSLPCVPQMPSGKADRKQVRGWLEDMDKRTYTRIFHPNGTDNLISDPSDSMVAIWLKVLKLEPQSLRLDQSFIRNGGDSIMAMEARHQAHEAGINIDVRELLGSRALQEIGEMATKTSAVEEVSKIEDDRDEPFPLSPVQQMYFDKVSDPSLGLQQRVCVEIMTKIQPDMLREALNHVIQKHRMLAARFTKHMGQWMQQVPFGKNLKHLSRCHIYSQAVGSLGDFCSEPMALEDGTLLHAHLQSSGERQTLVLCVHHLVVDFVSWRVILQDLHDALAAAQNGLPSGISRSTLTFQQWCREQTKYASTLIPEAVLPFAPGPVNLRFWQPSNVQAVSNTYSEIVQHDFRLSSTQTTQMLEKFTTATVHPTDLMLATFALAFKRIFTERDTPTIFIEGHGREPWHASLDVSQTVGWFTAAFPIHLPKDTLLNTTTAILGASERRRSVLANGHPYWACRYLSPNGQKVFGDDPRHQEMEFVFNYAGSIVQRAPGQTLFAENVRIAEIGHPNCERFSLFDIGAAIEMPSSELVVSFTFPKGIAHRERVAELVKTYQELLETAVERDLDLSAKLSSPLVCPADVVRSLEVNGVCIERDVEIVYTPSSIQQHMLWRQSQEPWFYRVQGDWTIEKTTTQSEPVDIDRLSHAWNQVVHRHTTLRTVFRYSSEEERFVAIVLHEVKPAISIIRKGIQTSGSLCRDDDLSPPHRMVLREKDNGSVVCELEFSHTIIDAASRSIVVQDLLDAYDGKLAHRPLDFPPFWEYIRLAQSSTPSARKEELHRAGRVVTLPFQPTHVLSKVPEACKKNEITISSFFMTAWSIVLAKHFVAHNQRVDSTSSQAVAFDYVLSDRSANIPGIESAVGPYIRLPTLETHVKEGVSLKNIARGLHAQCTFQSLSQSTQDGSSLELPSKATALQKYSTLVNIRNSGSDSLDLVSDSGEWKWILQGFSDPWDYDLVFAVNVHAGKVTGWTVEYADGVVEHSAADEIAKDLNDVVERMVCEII
Test: Biocatalytic stereoinversion or deracemization of tryptophan and substituted tryptophans by IvoA (chiral-HPLC)
Format: biochemical, Aspergillus nidulans
Conditions: ee of D-enantiomer; 1.5 mM substrates, 5 μM IvoA, 5 mM ATP, 10 mM MgCl2, 100 mM K2HPO4 buffer, pH 7.5
OBSERVABLE: ee (%)

Illustrative cases are given below, each with its answer.
Cc1[nH]c2ccccc2c1CC(N)C(=O)O (racemic) | 1.3%
Cc1ccc2c(CC(N)C(=O)O)c[nH]c2c1 (centres unmarked) | 97%
NC(Cc1c[nH]c2ccc(Br)cc12)C(=O)O (centres unmarked) | >99%
N[C@@H](Cc1c[nH]c2ccccc12)C(=O)O | >99%
NC(Cc1c[nH]c2cc(F)ccc12)C(=O)O (centres unmarked) | >99%
NC(Cc1c[nH]c2c(Br)cccc12)C(=O)O (centres unmarked) | 87%
COc1ccc2[nH]cc(C[C@H](N)C(=O)O)c2c1 | >99%

Would you kindly look at the next entry?
Look at this molecule and give its reported ee (%). Cc1ccc2[nH]cc(CC(N)C(=O)O)c2c1 (centres unmarked)
>99%
